# testTarget: Human immunodeficiency virus type 1 reverse transcriptase (Human immunodeficiency virus 1, UniProt Q72547)
# testSummary: Inhibition of HIV-1 reverse transcriptase.
readoutName: pEC50
Value format note: pEC50 is -log10 of concentration (mol/L); just state the number.

Input line: Find the recorded pEC50 belonging to `[N-]=[N+]=NCc1cccc2c1nc(-c1c(F)cccc1F)n2Cc1c(F)cccc1F` and report it.
Output line: 7.35

Input line: Find the recorded pEC50 belonging to `N#CCc1cccc2c1nc(-c1c(F)cccc1F)n2Cc1c(F)cccc1F` and report it.
Output line: 7.22

Input line: Find the recorded pEC50 belonging to `CC(=O)Nc1cccc2c1nc(-c1c(F)cccc1F)n2Cc1c(F)cccc1F` and report it.
Output line: 5.78

Input line: Find the recorded pEC50 belonging to `Nc1cccc2c1nc(-c1c(F)cccc1F)n2Cc1c(F)cccc1F` and report it.
Output line: 6.28
